- PROCEDURE TEXT: Thermo Scientific Acclaim RSLC 120 C18, 100 × 2.1 mm, 2.2 µm, 30 °C; A: 90% water + 10% methanol + 0.01% formic acid + 5 mM ammonium formate; B: methanol + 0.01% formic acid + 5 mM ammonium formate; gradient (min/%B) 0.1/1 3/39 14/99.9 16/99.9
- TEST CONTEXT: stereoisomer not certain
Field: LC retention time. Provide a value for each of the molecules that follow.
Numbers only, in min.

>>> meas_value("CCCc1nc(C)c2c(=O)[nH]c(-c3cc(C(=O)CN4CCN(CC)CC4)ccc3OCC)nn12")
7.16
>>> meas_value("COCCCNc1nc(NC(C)C)nc(SC)n1")
9.14
>>> meas_value("CC(=O)Nc1ccc(S(=O)(=O)Nc2ncccn2)cc1")
4.11
>>> meas_value("CCCc1nn(C)c2c(=S)nc(-c3cc(C(=S)N4CCN(C)CC4)ccc3OCC)[nH]c12")
11.5
>>> meas_value("C#CCOS(=O)OC1CCCCC1Oc1ccc(C(C)(C)C)cc1 (stereo not drawn)")
12.8

Report LC retention time for every entry below.
1. CCCC(NC)C(=O)c1ccc2c(c1)OCO2 (stereo not drawn)
2. CC(C)(C)N1CCC(c2ccccc2)(c2ccccc2)CC1
3. CNC(C)C(O)c1ccccc1 (stereo not drawn)
4. CSC(=O)c1cccc2nnsc12
5. CCCCCn1cc(C(=O)Cc2ccc(OC)cc2)c2ccccc21
6. CCSC(=O)N(CC)C1CCCCC1

[4.99, 6.72, 3.76, 9.65, 11.6, 11.7]

====

- PROCEDURE TEXT: Thermo Scientific Acclaim RSLC 120 C18, 100 × 2.1 mm, 2.2 µm, 30 °C; A: 90% water + 10% methanol + 0.01% formic acid + 5 mM ammonium formate; B: methanol + 0.01% formic acid + 5 mM ammonium formate; gradient (min/%B) 0.1/1 3/39 14/99.9 16/99.9
- TEST CONTEXT: stereoisomer not certain
Label label 1 when LC retention time < 6 min; otherwise label 0.

>>> label("CCOP(=S)(NC(C)C)Oc1ccccc1C(=O)OC(C)C (stereo not drawn)")
"label 0"
>>> label("NC(=O)c1ccccc1O")
"label 1"
>>> label("CCN(CC)CCCOC(=O)C1(c2ccccc2)CC2CCC1C2 (stereo not drawn)")
"label 0"

Consider COc1ccc2c3c1OC1CC(O)C=CC31CCN(C)C2 (stereo not drawn) . Does its LC retention time lie strictly below 6 min?
label 1

Consider CCC(C)(CC)c1cc(NC(=O)c2c(OC)cccc2OC)on1 . Does its LC retention time lie strictly below 6 min?
label 0

Consider Cc1ccc(C(C)NC(=O)C(NC(=O)OC(C)C)C(C)C)cc1 (stereo not drawn) . Does its LC retention time lie strictly below 6 min?
label 0

Consider Cc1cc(C)nc(NC(=O)NS(=O)(=O)c2ccccc2C(=O)OC2COC2)n1 . Does its LC retention time lie strictly below 6 min?
label 0

====

Field: LC retention time. Provide a value for each of the compounds that follow.
- PROCEDURE TEXT: Thermo Scientific Acclaim RSLC 120 C18, 100 × 2.1 mm, 2.2 µm, 30 °C; A: 90% water + 10% methanol + 0.01% formic acid + 5 mM ammonium formate; B: methanol + 0.01% formic acid + 5 mM ammonium formate; gradient (min/%B) 0.1/1 3/39 14/99.9 16/99.9
- TEST CONTEXT: stereoisomer not certain
Give bare numbers, in min.

>>> meas_value("CNC(=O)Oc1cc(C)cc(C)c1C")
8.4
>>> meas_value("CCCC(NC)C(=O)c1ccccc1 (stereo unspecified)")
4.89
>>> meas_value("CCC(Cc1ccc2c(c1)OCO2)NC (stereo unspecified)")
4.66

Report LC retention time for every entry below.
1. CCNc1nc(NC(C)C)[nH]c(=O)n1
2. CC(=O)c1ccc(S(=O)(=O)NC(=O)NC2CCCCC2)cc1
3. CC(=O)NCCCS(=O)(=O)O
4. COP(=S)(NC(C)C)Oc1ccccc1C(=O)OC(C)C (stereo unspecified)
5. CCCCCCC(C)(C)c1cc(O)c2c(c1)OC(C)(C)C1CC=C(CO)CC21 (stereo unspecified)
6. CCN1CCCC1CNC(=O)c1cc(S(N)(=O)=O)ccc1OC (stereo unspecified)
7. NS(=O)(=O)c1ccc(N2CCCCS2(=O)=O)cc1

[5.03, 7.72, 1.4, 11.7, 13.5, 2.94, 4.11]

Look up LC retention time for this compound: CNCC(O)c1cccc(O)c1 (stereo unspecified)
1.93
